- Test system: mice
- assay_explanation: Neuropharmacological Assay (SmartCube)
- Format: in vivo
- protocol_conditions: i.p. 15 min before behavioral test; 3 doses, most efficacious dose(s) presented
endpoint_label: SD: sedative hypnotic (probability of class match)

- compound: "CN1CC(C2OCCn3nc4ccccc4c32)C1.Cl (stereo not shown)"
  result: "+ (LOQ≦ + <5%)"
- compound: "c1ccc2c3n(nc2c1)CCOC3[C@@H]1CCN1 (stereo partly shown)"
  result: "+ (LOQ≦ + <5%)"
- compound: "CN1CC[C@H]1C1OCCn2nc3ccccc3c21 (stereo partly shown)"
  result: "++ (5%≦ ++ <25%)"
- compound: "c1ccc2c3n(nc2c1)CCOC3CN1CC1 (stereo not shown)"
  result: "++ (5%≦ ++ <25%)"

----------
- Tested on: mice
- assay_explanation: Neuropharmacological Assay (SmartCube)
- Format: in vivo
- protocol_conditions: i.p. 15 min before behavioral test; 3 doses, most efficacious dose(s) presented
endpoint_label: HA: hallucinogen (probability of class match)

Consider the reported HA: hallucinogen (probability of class match) for these compounds:
- compound: "CN(CC1OCCn2nc3ccccc3c21)C1CCC1.Cl (centres unmarked) [Compound 29]"
  result: "++ (5%≦ ++ <25%)"
- compound: "CN(C)C[C@@H]1OCCn2nc3ccccc3c21 [Compound 3]"
  result: "+ (LOQ≦ + <5%)"
- compound: "Cl.NCC1OCCCn2nc3ccccc3c21 (centres unmarked) [Compound 56]"
  result: "+ (LOQ≦ + <5%)"
- compound: "CNCC1OCCn2nc3ccsc3c21.Cl (centres unmarked) [Compound 58]"
  result: "++ (5%≦ ++ <25%)"
- compound: "CC(C)N(C)CC1OCCn2nc3ccccc3c21.Cl (centres unmarked) [Compound 27]"
  result: "+ (LOQ≦ + <5%)"

Task: Param item = CN[C@@H](C)[C@H]1OCCn2nc3ccccc3c21 (relative stereo) [Compound 34] ; retrieve measured HA: hallucinogen (probability of class match).
Output: + (LOQ≦ + <5%)

Task: Param item = CN(CC1OCCn2nc3ccccc3c21)C1CC1 (centres unmarked) [Compound 22] ; retrieve measured HA: hallucinogen (probability of class match).
Output: ++ (5%≦ ++ <25%)

Task: Param item = CN(C)CC1OCCn2nc3ccc(F)cc3c21.Cl (centres unmarked) [Compound 8] ; retrieve measured HA: hallucinogen (probability of class match).
Output: + (LOQ≦ + <5%)

Task: Param item = C[C@H]([C@H]1OCCn2nc3ccccc3c21)N(C)C.Cl (relative stereo) [Compound 32] ; retrieve measured HA: hallucinogen (probability of class match).
Output: + (LOQ≦ + <5%)

Task: Param item = Cl.N[C@H](CC1CCC1)C1OCCn2nc3ccccc3c21 (some centres unmarked) [Compound 41] ; retrieve measured HA: hallucinogen (probability of class match).
Output: + (LOQ≦ + <5%)

Task: Param item = CNCC1OCCn2nc3cnccc3c21.Cl.Cl (centres unmarked) [Compound 61] ; retrieve measured HA: hallucinogen (probability of class match).
Output: ++ (5%≦ ++ <25%)

----------
- Test system: mice
- assay_explanation: Neuropharmacological Assay (SmartCube)
- Type: in vivo
- protocol_conditions: i.p. 15 min before behavioral test; 3 doses, most efficacious dose(s) presented
- From the text: Neurosci. […] As reported in Roberds, because psychiatric diseases generally result from disorders of cell-cell communication or circuitry, intact systems are useful in detecting improvement in disease-relevant endpoints. These endpoints are typically behavioral in nature, often requiring human observation and interpretation. […] where LOQ is the limit of quantification. […]
endpoint_label: SD: sedative hypnotic (probability of class match)

Consider the reported SD: sedative hypnotic (probability of class match) for these compounds:
- compound: "Cl.NCC1OCCn2nc3ccsc3c21 (stereo not drawn)"
  result: "++ (5%≦ ++ <25%)"
- compound: "CN1CCO[C@@H]([C@H]2OCCn3nc4ccccc4c32)C1"
  result: "+ (LOQ≦ + <5%)"
- compound: "C[C@H]([C@H]1OCCn2nc3ccccc3c21)N(C)C.Cl (relative stereo)"
  result: "+ (LOQ≦ + <5%)"
- compound: "CN(C)C[C@H]1OCCn2nc3ccccc3c21.Cl"
  result: "+ (LOQ≦ + <5%)"
- compound: "CC(C)N(C)CC1OCCn2nc3ccccc3c21.Cl (stereo not drawn)"
  result: "+ (LOQ≦ + <5%)"

Task: Param item = Cl.NCC1OCCCn2nc3ccccc3c21 (stereo not drawn) ; retrieve measured SD: sedative hypnotic (probability of class match).
Output: + (LOQ≦ + <5%)

Task: Param item = CN[C@H](C)[C@H]1OCCn2nc3ccccc3c21.Cl (relative stereo) ; retrieve measured SD: sedative hypnotic (probability of class match).
Output: + (LOQ≦ + <5%)

Task: Param item = CN[C@@H](C)[C@H]1OCCn2nc3ccccc3c21 (relative stereo) ; retrieve measured SD: sedative hypnotic (probability of class match).
Output: + (LOQ≦ + <5%)

Values compiled from patent US9758529B2.
